- Protocol Description: budding yeast growth modifiers under rapamycin – strain BY4716, OD600, 96 h, primary screen (AID 1091); note: test concentration not given here
- Test Parameters: S. cerevisiae BY4716 + rapamycin, higher = more signal, called active from +8 up or from −8 down
Let's look at some compounds and their measured z-score.
Note: the reply should be a number with no unit written.

O=C(O)[C@@H]1[C@@H]2C(=O)N(c3ccccc3)C(=O)[C@@H]2C[C@@H]1Sc1ccccc1 :: 1.53
O=C(O)[C@@H]1C[C@@H]2C(=O)N3CCC[C@H]3C(=O)N2[C@@H]1c1ccc(O)cc1 :: 0.0128
CCCC[C@@H]1C[C@H]1[C@@H](NC(=O)c1cccs1)c1ccccc1C(F)(F)F :: 1.08
CCCCN1CC=CC23O[C@@H]4/C=C\CCCOC(=O)C4[C@H]2C(=O)N(CCO)[C@@H]3C1=O (stereo partly specified) :: -0.0859

Bench note: what z-score did CN(C)CCCCCCNC(=O)[C@@H]1C[C@@H]2C(=O)N3CCC[C@H]3C(=O)N2[C@@H]1c1cccc(OCCO)c1 show?
1.04

Bench note: what z-score did O=C1[C@H]2C=C(I)[C@H](C[C@@H]2OCCOCCO)[C@@]12CO2 show?
-0.155

Bench note: what z-score did COc1ccc(CCNC(=O)[C@@]2(Cc3ccccc3I)c3ccccc3C(=O)N(C3CCCCC3)[C@H]2c2ccc(CO)cc2)cc1 show?
-0.742

---

- Test system: Inhibin beta A chain (activin A)
- Protocol Description: small molecules binding activin A – biochemical, small-molecule microarray, 635 nm fluorescence scan, primary screen (AID 1107);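 note: mouse activin A protein probed at 4.33 µg/mL on printed slides; score merges bound-protein fluorescence near 667 nm with spot signal-to-noise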
- Test Parameters: INHBA, higher = more signal
Quantity Measured: composite z-score
Note: the reply should be a number with no unit written.

CCCCCCCCCC(O)C1C=CC2C(=O)N(c3ccccc3)C(=O)C2N1Nc1cc(OC)c(OC)c(OC)c1 (stereo unspecified) :: 0.655

Bench note: what composite z-score did NC(=O)NCC#Cc1ccc2c(c1)[C@]1(C(=O)N2)[C@H](c2ccccc2OCCO)N2[C@H](c3ccccc3)[C@H](c3ccccc3)OC(=O)[C@H]2[C@@H]1C(=O)O show?
0.894

Bench note: what composite z-score did O=C1OCCC/C=C\[C@H]2OC34C=CCN(c5ccc6ccccc6c5)C(=O)[C@H]3N(CCO)C(=O)[C@@H]4C12 (stereo partly specified) show?
0.0621

Bench note: what composite z-score did COc1ccc([C@H]2OC[C@@H]3C[C@H](Cc4ccccc4)C(=O)N32)cc1 show?
0.0048

Bench note: what composite z-score did C=C[C@H](C)[C@H](OC(=O)Nc1ccc(SC)cc1)c1ccc(OCCO)cc1 show?
0.081

Bench note: what composite z-score did NC(=O)[C@@]1(Cc2ccccc2)COC(c2ccc(OCCCO)cc2)=N1 show?
0.663

Bench note: what composite z-score did CCOC(=O)C[C@H]1[C@H](OC(=O)c2ccc(C(=O)c3ccccc3)cc2)[C@@H](NC(=O)c2ccc(-c3ccccc3)cc2)c2cc(OCCCO)ccc2N1C(=O)Cc1ccc(OC)cc1 show?
0.783

Bench note: what composite z-score did [N-]=[N+]=NCc1ccccc1C[C@@]1(C(N)=O)N=C(c2ccc(OCCCO)cc2)O[C@@H]1c1ccccc1 show?
0.389

Bench note: what composite z-score did [N-]=[N+]=Nc1ccccc1[C@H]1OC(c2ccc(OCCCO)cc2)=N[C@@]1(Cc1ccccc1)C(=O)NCCN1CCOCC1 show?
1.13

Bench note: what composite z-score did Cc1ccc(NN2C(C(O)c3c(F)cccc3Cl)C=CC3C(=O)N(C4CCCCC4)C(=O)C32)cc1 (stereo unspecified) show?
1.32

---

- Protocol Description: compound effects on hepatocellular carcinoma cell viability – HepG2, calcein-AM fluorescence, 48 h, basal, profiling panel (AID 1164); note: test concentration not given here
- Test Parameters: higher = more signal
Outcome label depends on z-score relative to -0.3: at/above gives criterion met, below gives criterion not met.

CCOC(=O)C[C@H]1[C@H](OC(=O)c2ccc(C(=O)c3ccccc3)cc2)[C@@H](NC(=O)CC(C)C)c2cc(OCCCO)ccc2N1C(=O)c1ccccc1 :: criterion met

State whether the measured z-score reaches -0.3, counting equality as reaching it, for CN(C)C(=O)[C@]1(CCC(=O)OC(C)(C)C)N=C(c2ccc(OCCCO)cc2)O[C@@H]1c1ccccc1CN=[N+]=[N-]
criterion met

State whether the measured z-score reaches -0.3, counting equality as reaching it, for C=CC[C@@H](OC(=O)Nc1ccc(SC)cc1)c1ccc(O)c(F)c1
criterion not met

State whether the measured z-score reaches -0.3, counting equality as reaching it, for COc1ccc(C#Cc2ccc3c(c2)[C@]2(C(=O)N3)[C@H](C(=O)O)[C@H]3C(=O)O[C@H](c4ccccc4)[C@H](c4ccccc4)N3[C@@H]2c2ccc(O)cc2)cc1
criterion met

State whether the measured z-score reaches -0.3, counting equality as reaching it, for [N-]=[N+]=Nc1ccccc1C[C@]1(C(=O)NCC(O)CO)COC(c2ccc(OCCCO)cc2)=N1 (some centres not stated)
criterion met

State whether the measured z-score reaches -0.3, counting equality as reaching it, for COc1cc2c(cc1O)C(c1cccs1)N(Cc1cc3c(cc1Br)OCO3)CC2 (configuration not stated)
criterion not met

---

- Protocol Description: compound effects on differentiated 3T3-L1 adipocyte viability – cell-based, 3T3-L1 adipocytes, calcein-AM fluorescence, 48 h, basal, profiling panel (AID 1163); note: test concentration not given here
- Test Parameters: 3T3-L1 adipocytes viability, higher = more signal
Quantity Measured: z-score
Note: the reply should be a number with no unit written.

NC(=O)[C@@]1(Cc2ccccc2)COC(c2ccc(OCCCO)cc2)=N1 :: -0.0025
CCOc1cc(C(O)C2C=CC3C(=O)NC(=O)C3N2Nc2ccc(Cl)cc2Cl)ccc1O (stereo not drawn) :: -0.337
COC(=O)[C@@]1(Cc2ccc(OC)cc2)[C@H]2c3cc(C(=O)N(C)C)n(Cc4ccc(OC(F)(F)F)cc4)c3C[C@H]2CN1C(=O)c1ccccc1 :: -0.306
C[N+](C)(C)CCCCCCNC(=O)[C@@H]1C[C@@H]2C(=O)N3CCC[C@H]3C(=O)N2[C@@H]1c1ccc(O)cc1 :: -0.329
CCCCCC1=C2CNC(C)(C(=O)OC)C=C2C(C)C1=O (stereo not drawn) :: -0.0708
COC(=O)[C@@]1(Cc2ccccc2)[C@H]2c3cc(C(=O)N4CCCC4)n(CCc4ccccn4)c3C[C@H]2CN1C(=O)c1ccccc1 :: 1.13

Alright, here's another compound for you.
Bench note: what z-score did COC(=O)C(CC#Cc1ccc2c(c1)[C@]1(C(=O)N2)[C@H](c2ccc(O)cc2)N2[C@H](c3ccccc3)[C@H](c3ccccc3)OC(=O)[C@H]2[C@@H]1C(=O)NC[C@H](O)c1ccccc1)C(=O)OC show?
-0.909

---

- Protocol Description: compound effects on differentiated 3T3-L1 adipocyte viability – cell-based, 3T3-L1 adipocytes, calcein-AM fluorescence, 48 h, basal, profiling panel (AID 1163); note: test concentration not given here
- Test Parameters: 3T3-L1 adipocytes viability, higher = more signal
Quantity Measured: z-score
Note: the reply should be a number with no unit written.

Bench note: what z-score did CCOC(=O)C=Cc1cccc(C)c1O show?
0.407

Bench note: what z-score did CC(C)c1ccc(NN2C(C(O)c3ccc(F)cc3)C=CC3C(=O)N(c4ccccc4)C(=O)C32)cc1 (stereo not drawn) show?
-1.37

Bench note: what z-score did CCCC[C@@H](O)C1=C(COC)C[C@H]2C(=O)N(Cc3ccccc3)C(=O)[C@H]2[C@H]1CO show?
-1

---

- Target Of Assay: Homeobox protein Hox-A13 (Mus musculus) (UniProt Q62424)
- Sequence (Q62424 whole entry, looked up): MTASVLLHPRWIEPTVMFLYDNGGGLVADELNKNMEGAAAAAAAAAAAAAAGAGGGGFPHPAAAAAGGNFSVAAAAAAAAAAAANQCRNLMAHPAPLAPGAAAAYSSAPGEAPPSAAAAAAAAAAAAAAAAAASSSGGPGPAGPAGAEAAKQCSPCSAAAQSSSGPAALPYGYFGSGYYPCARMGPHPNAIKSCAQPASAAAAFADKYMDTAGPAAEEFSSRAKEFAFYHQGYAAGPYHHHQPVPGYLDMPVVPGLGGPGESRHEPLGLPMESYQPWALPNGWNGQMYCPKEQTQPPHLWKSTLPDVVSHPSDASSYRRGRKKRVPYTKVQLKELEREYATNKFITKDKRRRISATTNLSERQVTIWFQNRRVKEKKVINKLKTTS
- Protocol Description: disruptors of Hoxa13 oligonucleotide interaction – biochemical, fluorescence polarization, labeled oligonucleotide, primary screen (AID 1185)
- Test Parameters: Hoxa13:DNA binding, 15 min, higher = more signal, called active from +8 up or from −8 down
Quantity Measured: z-score
Note: the reply should be a number with no unit written.

Record excerpt, results attached:
CCOC(=O)C[C@H]1[C@H](OC(=O)Cc2ccc3c(c2)OCO3)[C@@H](NC(=O)c2ccc3ccccc3n2)c2cc(OCCCO)ccc2N1C(=O)c1ccc2ccccc2n1 :: -2.98
CC(C)C(CO)N1C(=O)[C@@H]2[C@H]3C(=O)OCC=C[C@H]3OC23C=CCN(c2ccc(Cl)cc2)C(=O)[C@@H]13 (some centres not stated) :: -3.03

Bench note: what z-score did COCCOC(=O)N1C(=O)[C@@]2(c3cc(C#CCC(C(=O)OC)C(=O)OC)ccc31)[C@H](c1ccc(OCCO)cc1)N1[C@H](c3ccccc3)[C@H](c3ccccc3)OC(=O)[C@H]1[C@@H]2C(=O)N1CCc2cc(OC)c(OC)cc2C1 show?
2.86

Bench note: what z-score did COC(=O)[C@@]1(Cc2ccc(F)cc2)[C@H]2c3cc(C(=O)N4CCCC4)n(Cc4ccc(C)c(F)c4F)c3C[C@H]2CN1C(=O)c1ccccc1 show?
-6.02

Bench note: what z-score did C=CCNC(=O)[C@H]1[C@@H]2C(=O)O[C@@H](c3ccccc3)[C@@H](c3ccccc3)N2[C@@H](c2ccccc2OCCO)[C@]12C(=O)N(C(=O)OCCOC)c1ccc(C#CC3(O)CCCCCC3)cc12 show?
-0.807
